Experiment: Determination of cytotoxicity: Alamar Blue Cell Viability Assay
Assay type: cell-based
Conditions: deciphr cells; Cytotoxicity; PNL4-3; deClPhR™ cells
Result type: CC50

Determine from records and report CC50 for C#C[C@@]1(CO)C=C[C@H](n2cc(C)c(=O)[nH]c2=O)O1 [4'-E-d4T (WA32), reference compound]
> 200 µM

----------
Test system: HIV-1 virus strain Resistant QCR8
Details: Resistance factor Rf=EC50 mutant / EC50 wt virus
The threshold is 1. Values of Rf* beneath it are tagged Satisfied; values meeting or exceeding it are tagged Not satisfied.

Worked set:
Identify whether the compound C#C[C@@]1(COC(=O)CCCCCCCCCCSCC)C=C[C@H](n2cc(C)c(=O)[nH]c2=O)O1 records Rf* below 1.
Not satisfied

Identify whether the compound C#C[C@@]1(COC(=O)CCCCCCCCCCCCC)C=C[C@H](n2cc(C)c(=O)[nH]c2=O)O1 records Rf* below 1.
Not satisfied

Next:
Identify whether the compound C#C[C@@]1(CO)C=C[C@H](n2cc(C)c(=O)[nH]c2=O)O1 [4'-E-d4T (WA32), reference compound] records Rf* below 1.
Not satisfied

Identify whether the compound C#C[C@@]1(COC(=O)CCCCCCCCCCCOC)C=C[C@H](n2cc(C)c(=O)[nH]c2=O)O1 records Rf* below 1.
Not satisfied

Identify whether the compound C#C[C@@]1(COC(=O)CCCCCCCCCCCN=[N+]=[N-])C=C[C@H](n2cc(C)c(=O)[nH]c2=O)O1 records Rf* below 1.
Satisfied
